Biological target: Taq pol M747E M747E (UniProt P19821)
Assay: stopped-flow fluorescence anisotropy
Settings: T17 carries SIMA; Kd: 5 mM Tricine-KOH pH 8.0, 100 mM KCl, 3.4 mM MgCl2, 0.1 mM each dNTP, 0.01% Tween 20, 20 nM hairpin, 55 C (SYTO 13 1/5000 listed in the shared buffer)
ENDPOINT: pKd
Recall that pKd is obtained by taking minus log10 of the concentration measured in molar.

GCTATGCGTGAGCGCTTTTGCGCTCACGCATAGC [H-Kd hairpin] on Taq pol M747E M747E (UniProt P19821) gives pKd = 7.59

* * *

Target: Taq pol S515D S515D (UniProt P19821)
Assay: stopped-flow fluorescence anisotropy
Settings: T17 carries SIMA; Kd: 5 mM Tricine-KOH pH 8.0, 100 mM KCl, 3.4 mM MgCl2, 0.1 mM each dNTP, 0.01% Tween 20, 20 nM hairpin, 55 C (SYTO 13 1/5000 listed in the shared buffer)
ENDPOINT: Kd (nM)
Kindly answer with a numeric value in nM, unit omitted.

Value of Kd reported for the sequence GCTATGCGTGAGCGCTTTTGCGCTCACGCATAGC [H-Kd hairpin] is 80.7

* * *

Target: Taq pol E507Q-D578S-R728Q E507Q;D578S;R728Q (UniProt P19821)
Assay: stopped-flow fluorescence anisotropy
Conditions: T17 carries SIMA; Kd: 5 mM Tricine-KOH pH 8.0, 100 mM KCl, 3.4 mM MgCl2, 0.1 mM each dNTP, 0.01% Tween 20, 20 nM hairpin, 55 C (SYTO 13 1/5000 listed in the shared buffer)
ENDPOINT: pKd
Value format note: pKd is -log10 of concentration (mol/L); just state the number.

Looking up GCTATGCGTGAGCGCTTTTGCGCTCACGCATAGC [H-Kd hairpin] , I found its pKd recorded as 8.20

* * *

Target: Taq pol S515N-M747S S515N;M747S (UniProt P19821)
Assay: stopped-flow fluorescence anisotropy
Conditions: T17 carries SIMA; Kd: 5 mM Tricine-KOH pH 8.0, 100 mM KCl, 3.4 mM MgCl2, 0.1 mM each dNTP, 0.01% Tween 20, 20 nM hairpin, 55 C (SYTO 13 1/5000 listed in the shared buffer)
ENDPOINT: Kd (nM)
Report as a plain number; the unit nM is understood.

For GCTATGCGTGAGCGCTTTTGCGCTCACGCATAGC [H-Kd hairpin] the sequence record lists Kd as 1.93

* * *

Target: Taq pol E507R-R573K-E708Q E507R;R573K;E708Q (UniProt P19821)
Experiment: stopped-flow fluorescence anisotropy
Conditions: T17 carries SIMA; Kd: 5 mM Tricine-KOH pH 8.0, 100 mM KCl, 3.4 mM MgCl2, 0.1 mM each dNTP, 0.01% Tween 20, 20 nM hairpin, 55 C (SYTO 13 1/5000 listed in the shared buffer)
ENDPOINT: pKd
Worth noting: pKd values are minus log10 of concentrations stated in mol/L.

The sequence identified as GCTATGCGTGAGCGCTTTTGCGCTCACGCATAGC [H-Kd hairpin] registered its pKd at 9.02

* * *

Molecular target: Taq pol E708L E708L (UniProt P19821)
Experiment: stopped-flow fluorescence anisotropy
Conditions: T17 carries SIMA; Kd: 5 mM Tricine-KOH pH 8.0, 100 mM KCl, 3.4 mM MgCl2, 0.1 mM each dNTP, 0.01% Tween 20, 20 nM hairpin, 55 C (SYTO 13 1/5000 listed in the shared buffer)
ENDPOINT: Kd (nM)
Report as a plain number; the unit nM is understood.

Short answer for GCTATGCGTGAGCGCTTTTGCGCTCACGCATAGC [H-Kd hairpin] : Kd was 6.82

* * *

Molecular target: Taq pol H639A H639A (UniProt P19821)
Test: stopped-flow fluorescence anisotropy
Details: T17 carries SIMA; Kd: 5 mM Tricine-KOH pH 8.0, 100 mM KCl, 3.4 mM MgCl2, 0.1 mM each dNTP, 0.01% Tween 20, 20 nM hairpin, 55 C (SYTO 13 1/5000 listed in the shared buffer)
ENDPOINT: Kd (nM)
Your answer is read as nM, so omit the unit and give the number.

Summary: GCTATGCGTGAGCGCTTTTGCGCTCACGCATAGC [H-Kd hairpin] , Taq pol H639A H639A (UniProt P19821), Kd = 8.14

* * *

Target: Taq pol F667M F667M (UniProt P19821)
Test: stopped-flow fluorescence anisotropy
Details: T17 carries SIMA; Kd: 5 mM Tricine-KOH pH 8.0, 100 mM KCl, 3.4 mM MgCl2, 0.1 mM each dNTP, 0.01% Tween 20, 20 nM hairpin, 55 C (SYTO 13 1/5000 listed in the shared buffer)
ENDPOINT: pKd
The value called pKd is obtained by taking minus log10 of the concentration in mol/L.

Looking up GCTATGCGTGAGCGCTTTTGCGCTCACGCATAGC [H-Kd hairpin] , I see its pKd listed as 8.06

* * *

Biological target: Taq pol D578N D578N (UniProt P19821)
Test: stopped-flow fluorescence anisotropy
Conditions: T17 carries SIMA; Kd: 5 mM Tricine-KOH pH 8.0, 100 mM KCl, 3.4 mM MgCl2, 0.1 mM each dNTP, 0.01% Tween 20, 20 nM hairpin, 55 C (SYTO 13 1/5000 listed in the shared buffer)
ENDPOINT: pKd
Note on units: pKd is unitless, being -log10 of a concentration expressed in mol/L.

# pKd of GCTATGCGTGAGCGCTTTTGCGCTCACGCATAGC [H-Kd hairpin] = 8.37

* * *

Molecular target: Taq pol H639Y H639Y (UniProt P19821)
Assay: stopped-flow fluorescence anisotropy
Conditions: T17 carries SIMA; Kd: 5 mM Tricine-KOH pH 8.0, 100 mM KCl, 3.4 mM MgCl2, 0.1 mM each dNTP, 0.01% Tween 20, 20 nM hairpin, 55 C (SYTO 13 1/5000 listed in the shared buffer)
ENDPOINT: pKd
// pKd is dimensionless: -log10 of concentration (M)

For reference, reported pKd for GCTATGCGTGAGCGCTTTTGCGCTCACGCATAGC [H-Kd hairpin] stands at 8.13

* * *

Biological target: Taq pol M747D M747D (UniProt P19821)
Assay: stopped-flow fluorescence anisotropy
Conditions: T17 carries SIMA; Kd: 5 mM Tricine-KOH pH 8.0, 100 mM KCl, 3.4 mM MgCl2, 0.1 mM each dNTP, 0.01% Tween 20, 20 nM hairpin, 55 C (SYTO 13 1/5000 listed in the shared buffer)
ENDPOINT: Kd (nM)
# value in nM; strip the unit string

Entry under test: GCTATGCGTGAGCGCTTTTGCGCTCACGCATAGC [H-Kd hairpin] . Its Kd was 29.6

* * *

Molecular target: Taq pol D578Q-D732N D578Q;D732N (UniProt P19821)
Test: stopped-flow fluorescence anisotropy
Conditions: T17 carries SIMA; Kd: 5 mM Tricine-KOH pH 8.0, 100 mM KCl, 3.4 mM MgCl2, 0.1 mM each dNTP, 0.01% Tween 20, 20 nM hairpin, 55 C (SYTO 13 1/5000 listed in the shared buffer)
ENDPOINT: Kd (nM)
Respond with the bare value in nM.

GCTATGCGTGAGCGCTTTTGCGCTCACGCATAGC [H-Kd hairpin] has a reported Kd of 0.8

* * *

Target: Taq pol E708Q-D732N E708Q;D732N (UniProt P19821)
Experiment: stopped-flow fluorescence anisotropy
Details: T17 carries SIMA; Kd: 5 mM Tricine-KOH pH 8.0, 100 mM KCl, 3.4 mM MgCl2, 0.1 mM each dNTP, 0.01% Tween 20, 20 nM hairpin, 55 C (SYTO 13 1/5000 listed in the shared buffer)
ENDPOINT: pKd
When answering, recall that pKd equals minus log10 of the concentration in mol/L, and write that number alone.

Field pKd (entry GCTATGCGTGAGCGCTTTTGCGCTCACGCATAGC [H-Kd hairpin] ) reads 8.36

* * *

Biological target: Taq pol E507K-D732N E507K;D732N (UniProt P19821)
Test: stopped-flow fluorescence anisotropy
Details: T17 carries SIMA; Kd: 5 mM Tricine-KOH pH 8.0, 100 mM KCl, 3.4 mM MgCl2, 0.1 mM each dNTP, 0.01% Tween 20, 20 nM hairpin, 55 C (SYTO 13 1/5000 listed in the shared buffer)
ENDPOINT: Kd
State the value, then name its unit.

Entry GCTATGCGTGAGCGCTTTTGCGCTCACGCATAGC [H-Kd hairpin] — recorded Kd = 1.69 nM

* * *

Molecular target: Taq pol R660V R660V (UniProt P19821)
Test: stopped-flow fluorescence anisotropy
Details: T17 carries SIMA; Kd: 5 mM Tricine-KOH pH 8.0, 100 mM KCl, 3.4 mM MgCl2, 0.1 mM each dNTP, 0.01% Tween 20, 20 nM hairpin, 55 C (SYTO 13 1/5000 listed in the shared buffer)
ENDPOINT: pKd
Worth noting: pKd values are minus log10 of concentrations stated in mol/L.

Per the record, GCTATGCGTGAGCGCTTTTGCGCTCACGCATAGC [H-Kd hairpin] has pKd of 8.21
